- Test system: NCI-H23
- assay: NCI tumour cell line growth inhibition, 48 h
Active and inactive are the calls of the source. Cut-off read from the data, not from the text of the source: active = GI50 up to about 1.1 µM and inactive = higher.
measure.name: GI50

Here's what some known entries look like.
INSERT INTO assay_data (compound, measure_name, data_value) VALUES
  ('COC(=O)C12C3C=CC(O3)C1C1C=CC2O1 (stereo not given)', 'GI50', '> 100 µM (inactive)'),
  ('OCC(O)C(O)c1nn(-c2ccccc2)c2nc3cc(Cl)c(Cl)cc3nc12 (stereo not given)', 'GI50', '41.5 µM (inactive)'),
  ('CC1=C(C(=O)Nc2ccccc2)C(c2ccc(C3C(C(=O)Nc4ccccc4)=C(C)NC(C)=C3C(=O)Nc3ccccc3)cc2)C(C(=O)Nc2ccccc2)=C(C)N1', 'GI50', '2.86 µM (inactive)');

Value sought: GI50, system NCI-H23, item CC1=NCCc2cc3[nH]c4ccccc4c3cc21 . Result: 33 µM (inactive)

// compound COc1ccccc1NC(=O)C1=C(C)NC(C)=C(C(=O)Nc2ccccc2OC)C1c1cccc2c1OCO2 , assay NCI-H23, GI50 value: > 100 µM (inactive)

Short answer on NCI-H23 for CC(=O)/C(=C/NC(=S)Nc1ccccc1)C(=O)Nc1ccccc1C , GI50: > 100 µM (inactive)

Let me check: CC(=O)OCC1OC(n2ncc(=O)[nH]c2=O)C(OC(C)=O)C1OC(C)=O (stereo not given) , system NCI-H23, measured GI50 is 68.5 µM (inactive)

Measured on NCI-H23, CCOC(=O)C1(Br)S(=O)(=O)OCCOS1(=O)=O has a documented GI50 of > 100 µM (inactive)

GET /values?item= COc1ccc(C2(O)C(S(=O)(=O)c3ccc(C)cc3)=Cc3ccc(OC)cc32)cc1 (stereo not given) &system= NCI-H23 returns GI50: > 100 µM (inactive)

Summary: O=C(Nc1sccc1S(=O)(=O)c1ccc(Cl)cc1)C(F)(F)F , NCI-H23, GI50 = 24.1 µM (inactive)

----------
- Tested on: BT-549
- assay: NCI tumour cell line growth inhibition, 48 h
Active and inactive are the calls of the source. No stated cut-off is given here; in the data, active = GI50 up to about 1.1 µM and inactive = higher.
// GI50 lookup, one value per entry

INSERT INTO assay_data (molecule, assayed_target, data_value) VALUES
  ('Cc1ccc(S(=O)(=O)N2CCN(CCN(C)CCN3CCN(S(=O)(=O)c4ccc(C)cc4)CC3)CC2)cc1', 'BT-549', '16.9 µM (inactive)'),
  ('CCOC(=O)c1cc([N+](=O)[O-])cc([N+](=O)[O-])c1Sc1[nH]cnc2ncnc1-2', 'BT-549', '2.24 µM (inactive)'),
  ('CC(=O)Nc1ccc(Nc2cc(=O)n(C)c(=O)[nH]2)cc1', 'BT-549', '> 100 µM (inactive)');

Item: CC(C)=CCc1cc(C2COc3cc4c(c(O)c3C2=O)C=CC(C)(C)O4)c(O)cc1O (stereo not given) | GI50: 16.3 µM (inactive)

GI50 recorded for this molecule, O=C(Nc1nccs1)NS(=O)(=O)n1cnc2ccccc21 , is > 100 µM (inactive)

----------
- System: MCF7
- assay: NCI tumour cell line growth inhibition, 48 h
The source made the active and inactive calls. Cut-off read from the data, not from the text of the source: active = GI50 up to about 1.1 µM and inactive = higher.
Please state which outcome applies, choosing from active, inactive

Reference set (5 entries):
INSERT INTO measurements (compound, label_value) VALUES
  ('O=C(c1ccccc1)N1CCN(C(=S)N(C(=O)c2ccccc2)c2ccccc2)C1=S', 'inactive'),
  ('O=[N+]([O-])C(/C(Cl)=C(\Cl)Br)=C(/Cl)SCc1ccccc1', 'inactive'),
  ('O=C(CCCC1Cc2ccccc2C1=O)c1ccccc1 (stereo not given)', 'inactive'),
  ('Cc1nc2c(ccc3[nH]c4ccccc4c32)s1', 'inactive'),
  ('COC(=O)C1(Cc2ccccc2)Cc2ccccc2C1=O (stereo not given)', 'inactive');

query: Please indicate how the test categorized CC(C)=CC(=O)c1[nH]c2ccccc2c1CC(=O)NCCc1c[nH]cn1 .
result: inactive

Sourced from ChEMBL document CHEMBL1201862
